- TESTED_TARGET: human sphingosine-1-phosphate receptor 1 (S1P1) (Homo sapiens (Human), UniProt P21453)
- Sequence (P21453 whole entry, looked up): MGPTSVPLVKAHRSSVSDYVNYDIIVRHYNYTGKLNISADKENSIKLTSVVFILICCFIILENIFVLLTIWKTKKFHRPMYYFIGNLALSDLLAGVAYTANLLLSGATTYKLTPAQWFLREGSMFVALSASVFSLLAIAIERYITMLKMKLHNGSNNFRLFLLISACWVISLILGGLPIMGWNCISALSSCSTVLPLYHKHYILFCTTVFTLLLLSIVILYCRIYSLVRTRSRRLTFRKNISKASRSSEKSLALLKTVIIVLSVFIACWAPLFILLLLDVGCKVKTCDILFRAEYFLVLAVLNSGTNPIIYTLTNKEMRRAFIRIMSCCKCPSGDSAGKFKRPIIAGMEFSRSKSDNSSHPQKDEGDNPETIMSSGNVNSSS
- Sequence (P32121 whole entry partner, looked up): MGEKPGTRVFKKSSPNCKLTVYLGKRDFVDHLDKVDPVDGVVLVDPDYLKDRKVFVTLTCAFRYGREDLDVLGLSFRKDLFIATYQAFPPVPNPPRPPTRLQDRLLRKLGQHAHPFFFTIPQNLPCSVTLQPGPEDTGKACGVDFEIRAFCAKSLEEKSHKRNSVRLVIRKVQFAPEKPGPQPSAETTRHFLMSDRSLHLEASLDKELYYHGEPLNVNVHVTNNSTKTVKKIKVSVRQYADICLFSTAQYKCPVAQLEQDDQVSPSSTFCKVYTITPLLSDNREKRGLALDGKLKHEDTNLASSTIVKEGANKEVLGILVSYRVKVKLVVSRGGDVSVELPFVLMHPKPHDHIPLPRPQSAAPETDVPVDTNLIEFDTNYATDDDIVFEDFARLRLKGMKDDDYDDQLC
- PROTOCOL_TEXT: β-Arrestin2 recruitment assay (PathHunter), S1P1 CHO-K1 cells
- Format: cell-based
- CONDITION: β-arrestin2 recruitment, S1P1 CHO-K1 cells
QUANTITY_NAME: hS1P1 B-arrestin2 pEC50

## Input Please indicate hS1P1 B-arrestin2 pEC50 recorded for `CCC1(CC)CC(=O)c2cc(-c3nc(-c4ccnc(NS(C)(=O)=O)c4)no3)ccc2O1`
## Output >5

## Input Give hS1P1 B-arrestin2 pEC50 for the following molecule: `CC(C)n1nnc2cc(-c3noc(-c4ccccc4Br)n3)ccc21`
## Output >5

## Input Identify measured hS1P1 B-arrestin2 pEC50 associated with `Cc1cccc2oc(-c3ccc4c(c3)nnn4C(C)C)nc12`
## Output >5

## Input Read off the recorded hS1P1 B-arrestin2 pEC50 for `CC(C)n1nnc2cc(-c3nc(Cc4ccccc4)no3)ccc21`
## Output <5

## Input Please look at this molecule and report its hS1P1 B-arrestin2 pEC50: `C=CCNc1ccc(-c2ccc(-c3ccc4c(c3)nnn4C(C)C)cc2)cc1C#N`
## Output <5

## Input Identify measured hS1P1 B-arrestin2 pEC50 associated with `OCCn1nnc2cc(-c3noc(-c4ccccc4Br)n3)ccc21`
## Output <5

## Input Provide hS1P1 B-arrestin2 pEC50 value for the following molecule: `c1cc(-c2noc(-c3ccc4c(c3)nnn4C3CCCC3)n2)ccn1`
## Output <5

## Input Please indicate hS1P1 B-arrestin2 pEC50 recorded for `CCCn1nnc2cc(-c3nc(-c4ccccc4)no3)ccc21`
## Output <5

## Input Give the reported hS1P1 B-arrestin2 pEC50 for this molecule. `CCC1(CC)CC(=O)c2cc(-c3nc(-c4ccc(NC(C)=O)cc4OC(F)(F)F)no3)ccc2O1`
## Output >5
